tested on: SK-MEL-28; test: NCI60 one-dose screen; format: cell-based; settings: Homo sapiens; SK-MEL-28, 10 μM; read-out: Growth percent
assay_metric: activity at 10 µM (%)
Answers are plain numbers, in %.

Reference set, count: 3
molecule: COc1ccc([P+](CCCCOc2cc(O)c3c(=O)cc(-c4ccccc4)oc3c2)(c2ccc(OC)cc2)c2ccc(OC)cc2)cc1 [3c]
tgt: SK-MEL-28
activity at 10 µM (%): -44.5
--
molecule: COc1c(C)cc([P+](CCCCOc2cc(O)c3c(=O)cc(-c4ccccc4)oc3c2)(c2cc(C)c(OC)c(C)c2)c2cc(C)c(OC)c(C)c2)cc1C [3f]
tgt: SK-MEL-28
activity at 10 µM (%): -85.7
--
molecule: O=c1cc(-c2ccccc2)oc2cc(OCCCC[P+](c3ccccc3)(c3ccccc3)c3ccccc3)cc(O)c12 [3a]
tgt: SK-MEL-28
activity at 10 µM (%): -98.5

Now let's try a different one.
Asked: Query activity at 10 µM for Cc1ccccc1[P+](CCCCOc1cc(O)c2c(=O)cc(-c3ccccc3)oc2c1)(c1ccccc1C)c1ccccc1C [3g]
Given back: -98.4
